Test system: walnut twig beetle (WTB), Pityophthorus juglandis
Assay Comment: Example 1 Field Test 1: flight response to X and related isomers, yellow sticky card traps
Format: in vivo
Test Parameters: about three months in summer, Davis CA, N=21
Measured Quantity: trap catches, male WTB

## Input Return reported trap catches, male WTB; argument: CC(C)=CCO [X, 3-methyl-2-buten-1-ol]
## Output 233

## Input Return reported trap catches, male WTB; argument: CC(C)CCO [X-2, 3-methyl-1-butanol]
## Output 23

## Input Return reported trap catches, male WTB; argument: CC(C)=CC=O [X-1, 3-methyl-2-butenal]
## Output 11

## Input Return reported trap catches, male WTB; argument: C=C(C)CCO [X-3, 3-methyl-3-buten-1-ol]
## Output 4
